Source listed as paper PMC10786891.

Recorded Kd, one value per entry.
# Target or test system: T1, EsCas13d, nuclease-dead (Eubacterium siraeum, UniProt B0MS50, R295A;H300A;R849A;H854A)
# T1 sequence: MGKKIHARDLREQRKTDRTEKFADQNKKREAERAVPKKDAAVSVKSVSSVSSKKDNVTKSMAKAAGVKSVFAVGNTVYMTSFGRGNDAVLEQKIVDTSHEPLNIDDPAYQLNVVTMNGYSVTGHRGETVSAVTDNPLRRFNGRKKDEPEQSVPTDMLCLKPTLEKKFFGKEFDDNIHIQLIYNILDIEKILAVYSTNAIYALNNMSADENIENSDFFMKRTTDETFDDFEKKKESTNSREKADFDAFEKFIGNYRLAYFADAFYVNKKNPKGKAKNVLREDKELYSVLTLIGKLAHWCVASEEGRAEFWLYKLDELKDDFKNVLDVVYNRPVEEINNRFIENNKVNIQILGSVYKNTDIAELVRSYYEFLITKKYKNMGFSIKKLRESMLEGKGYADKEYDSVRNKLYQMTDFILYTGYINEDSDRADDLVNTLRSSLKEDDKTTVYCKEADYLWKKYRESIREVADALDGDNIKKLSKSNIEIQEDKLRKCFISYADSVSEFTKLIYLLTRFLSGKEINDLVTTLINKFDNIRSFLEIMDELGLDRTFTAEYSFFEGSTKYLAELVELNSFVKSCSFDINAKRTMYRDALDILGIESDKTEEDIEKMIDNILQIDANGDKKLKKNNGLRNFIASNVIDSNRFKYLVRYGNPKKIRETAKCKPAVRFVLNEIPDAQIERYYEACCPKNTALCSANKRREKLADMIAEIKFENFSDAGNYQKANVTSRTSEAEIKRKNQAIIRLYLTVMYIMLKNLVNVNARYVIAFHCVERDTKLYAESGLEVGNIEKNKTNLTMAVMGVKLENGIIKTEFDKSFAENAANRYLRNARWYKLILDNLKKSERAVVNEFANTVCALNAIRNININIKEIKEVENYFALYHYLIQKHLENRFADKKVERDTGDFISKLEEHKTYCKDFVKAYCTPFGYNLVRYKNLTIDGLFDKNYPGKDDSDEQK
# Method summary: crRNA (strand 1, pre-loaded); Mg2+; 40 mM Tris-HCl pH 7.5, 150 mM NaCl, 6 mM MgCl2, 1 mM DTT, 0.1% Tween-20, 0.2 mg/ml BSA; 25 C; 10 min per concentration, then washed
# Experimental context: tags: His6-TwinStrep-SUMO cleaved; N-terminal SNAP kept (SNAP-Surface 488); label: 3' end held by stalled T7 RNA polymerase
Attribute measured: Kd (nM)

INSERT INTO results (binder, value) VALUES
  ('target 1 G12A,G15C (mixed) RNA 1: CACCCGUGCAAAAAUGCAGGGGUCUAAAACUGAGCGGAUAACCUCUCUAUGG RNA 2: GGGAAUGGAUCCACAUCUACGAAUUCGUACCAUAGACAGAUUAUCCGCUCACCGAGAUCGGAAGAGCACACGU', 57),
  ('target 1 MT 5''PFS GUG 3''PFS CAU (mixed) RNA 1: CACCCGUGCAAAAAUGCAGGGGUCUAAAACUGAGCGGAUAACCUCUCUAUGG RNA 2: GGGAAUGGAUCCACAUCUACGAAUUCGUGCCAUAGAGAGGUUAUCCGCUCACAUAGAUCGGAAGAGCACACGU', 18.4),
  ('target 2 MT 5''PFS CUC 3''PFS UAA (mixed) RNA 1: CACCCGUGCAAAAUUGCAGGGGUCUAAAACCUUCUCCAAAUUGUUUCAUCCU RNA 2: GGGAAUGGAUCCACAUCUACGAAUUCCUCAGGAUGAAACAAUUUGGAGAAGUAAAGAUCGGAAGAGCACACGU', 2.05),
  ('target 2 MT 5''PFS ACU 3''PFS UCC (mixed) RNA 1: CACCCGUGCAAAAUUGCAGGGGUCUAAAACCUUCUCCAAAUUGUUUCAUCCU RNA 2: GGGAAUGGAUCCACAUCUACGAAUUCACUAGGAUGAAACAAUUUGGAGAAGUCCAGAUCGGAAGAGCACACGU', 14.3),
  ('target 1 MT 5''PFS AGA 3''PFS UCC (mixed) RNA 1: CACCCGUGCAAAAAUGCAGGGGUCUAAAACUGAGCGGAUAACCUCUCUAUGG RNA 2: GGGAAUGGAUCCACAUCUACGAAUUCAGACCAUAGAGAGGUUAUCCGCUCAUCCAGAUCGGAAGAGCACACGU', 49.5),
  ('target 2 MT 5''PFS AAA 3''PFS CCG (mixed) RNA 1: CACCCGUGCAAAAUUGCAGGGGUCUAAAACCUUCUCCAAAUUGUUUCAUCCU RNA 2: GGGAAUGGAUCCACAUCUACGAAUUCAAAAGGAUGAAACAAUUUGGAGAAGCCGAGAUCGGAAGAGCACACGU', 5.7),
  ('target 1 insG 3'' of 6,insG 3'' of 4 (mixed) RNA 1: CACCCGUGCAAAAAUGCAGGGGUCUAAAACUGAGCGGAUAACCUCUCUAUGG RNA 2: GGGAAUGGAUCCACAUCUACGAAUUCGUACCAUAGAGAGGUUAUCCGGCGUCACCGAGAUCGGAAGAGCACACGU', 8),
  ('target 3 C1U,A11G (mixed) RNA 1: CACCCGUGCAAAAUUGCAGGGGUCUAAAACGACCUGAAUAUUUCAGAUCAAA RNA 2: GGGAAUGGAUCCACAUCUACGAAUUCGUUUUUGAUCUGAAGUAUUCAGGUUUGCAGAUCGGAAGAGCACACGU', 55.5);
